B1: TPR 5TU (parent)
chain: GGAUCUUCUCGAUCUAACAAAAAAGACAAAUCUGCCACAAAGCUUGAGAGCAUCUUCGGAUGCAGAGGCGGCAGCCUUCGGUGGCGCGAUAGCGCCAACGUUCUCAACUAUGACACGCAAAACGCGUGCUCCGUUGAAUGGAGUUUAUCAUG

- Variants of: B1
- Experimental protocol: polymerase ribozyme fitness, log enrichment relative to wild type (log ratio); higher = more active; in vitro selection for triplet polymerase activity
Fewer inactive variants are shown than the library holds.
Everything with polymerase ribozyme fitness (log ratio) lower than -3 is condition not met; everything else, including exactly -3, is condition met.

Reference set (5 entries):
| Variant name | Label value |
| --- | --- |
| U7G A12C C51G A64C C123U C132G | condition not met |
| C14A G34A A40C U55G C87G C114G G117U A121C U139A | condition not met |
| U55A G92A | condition met |
| C5G A41C U55A G58A A60G | condition met |
| A21C G84U U90C C116A A137C A138G | condition not met |

Q. Hi, just wondering whether C38A A60U G84A U134C shows polymerase ribozyme fitness (log ratio) of -3 or higher.
A. condition met

Q. State whether the measured polymerase ribozyme fitness (log ratio) reaches -3, counting equality as reaching it, for C54U A115U
A. condition met

Q. For this variant, is measured polymerase ribozyme fitness (log ratio) -3 or higher? A23G G86U C93U A150U
A. condition not met

Q. Assess whether reported polymerase ribozyme fitness (log ratio) for U55A C76A A115G A121C sits at -3 or higher.
A. condition met

Q. Identify whether the reported polymerase ribozyme fitness (log ratio) of the following variant is -3 or greater: C69U C116U U135A G136U
A. condition not met

Q. Determine whether this variant has polymerase ribozyme fitness (log ratio) no lower than -3: A91C A115G U146A
A. condition not met

Q. Item A37U U55A A91G A98U U148A with polymerase ribozyme fitness (log ratio) of -3 or above?
A. condition not met

Q. Please check the record C35G C36G G128U and state if its polymerase ribozyme fitness (log ratio) is at or above -3.
A. condition not met

Q. Could you verify whether the entry A52G A106C shows polymerase ribozyme fitness (log ratio) of no less than -3?
A. condition met

Q. Determine whether this variant has polymerase ribozyme fitness (log ratio) no lower than -3: A37U C72A C95U
A. condition not met

Q. Hello, I need to know if A39C A142U has measured polymerase ribozyme fitness (log ratio) not below -3. Thanks!
A. condition not met

Q. Given A23C A29G G81A G84U A122G G126A U135A , state whether its polymerase ribozyme fitness (log ratio) is at least -3.
A. condition not met

Q. Reported polymerase ribozyme fitness (log ratio) at or above -3? A16G A19G A23U A26C U44A U53A C87G C103A
A. condition not met

Q. Given the entry A37U C54A C96G , answer whether its polymerase ribozyme fitness (log ratio) meets or surpasses -3.
A. condition not met
